- PROTOCOL SUMMARY: Qualitative solubility screening
- Format: physicochemical
- CONDITION DETAILS: water, thermodynamic from solid, solvent Water; 50 mg in 4 mL; read-out: Solubility at Room Temp (RT)
- Description: Bupropion hydrobromide (50 mg) was introduced in 4 mL of solvent under stirring for about 1 hour at room temperature. See Table 41 for the qualitative solubility data.

| MOLECULE | solubility |
| --- | --- |
| Br.CC(NC(C)(C)C)C(=O)c1cccc(Cl)c1 (stereo not shown) [Bupropion hydrobromide] | > 12.5 mg/mL |

----------
- PROTOCOL SUMMARY: Qualitative solubility screening
- Format: physicochemical
- CONDITION DETAILS: organic solvent or mixture, thermodynamic from solid, solvent (±)2-Butanol; 50 mg in 4 mL; read-out: Solubility at Room Temp (RT)

| MOLECULE | solubility |
| --- | --- |
| Br.CC(NC(C)(C)C)C(=O)c1cccc(Cl)c1 (stereo not shown) [Bupropion hydrobromide] | < 12.5 mg/mL |

----------
- PROTOCOL SUMMARY: Qualitative solubility screening
- Assay type: physicochemical
- CONDITION DETAILS: organic solvent or mixture, thermodynamic from solid, solvent 1-Butanol; 50 mg in 4 mL; read-out: Solubility at Room Temp (RT)

| COMPOUND | solubility |
| --- | --- |
| Br.CC(NC(C)(C)C)C(=O)c1cccc(Cl)c1 (stereo not shown) [Bupropion hydrobromide] | > 12.5 mg/mL |

----------
- PROTOCOL SUMMARY: Qualitative solubility screening
- Type: physicochemical
- CONDITION DETAILS: organic solvent or mixture, thermodynamic from solid, solvent Dimethyl Formamide; 50 mg in 4 mL; read-out: Solubility at Room Temp (RT)

| COMPOUND | solubility |
| --- | --- |
| Br.CC(NC(C)(C)C)C(=O)c1cccc(Cl)c1 (stereo not shown) [Bupropion hydrobromide] | > 12.5 mg/mL |

----------
- PROTOCOL SUMMARY: Qualitative solubility screening
- Assay type: physicochemical
- CONDITION DETAILS: organic solvent or mixture, thermodynamic from solid, solvent 2-Methoxy Ethanol; 50 mg in 4 mL; read-out: Solubility at Room Temp (RT)

| COMPOUND | solubility |
| --- | --- |
| Br.CC(NC(C)(C)C)C(=O)c1cccc(Cl)c1 (stereo not shown) [Bupropion hydrobromide] | > 12.5 mg/mL |

----------
- PROTOCOL SUMMARY: Qualitative solubility screening
- Type: physicochemical
- CONDITION DETAILS: organic solvent or mixture, thermodynamic from solid, solvent Ethanol; 50 mg in 4 mL; read-out: Solubility at Room Temp (RT)
- Description: Bupropion hydrobromide (50 mg) was introduced in 4 mL of solvent under stirring for about 1 hour at room temperature. See Table 41 for the qualitative solubility data.

| COMPOUND | solubility |
| --- | --- |
| Br.CC(NC(C)(C)C)C(=O)c1cccc(Cl)c1 (stereo not shown) [Bupropion hydrobromide] | > 12.5 mg/mL |

----------
- PROTOCOL SUMMARY: Qualitative solubility screening
- Type: physicochemical
- CONDITION DETAILS: organic solvent or mixture, thermodynamic from solid, solvent Acetonitrile; 50 mg in 4 mL; read-out: Solubility at Room Temp (RT)

| MOLECULE | solubility |
| --- | --- |
| Br.CC(NC(C)(C)C)C(=O)c1cccc(Cl)c1 (stereo not shown) [Bupropion hydrobromide] | > 12.5 mg/mL |

----------
- PROTOCOL SUMMARY: Qualitative solubility screening
- Assay type: physicochemical
- CONDITION DETAILS: organic solvent or mixture, thermodynamic from solid, solvent Cyclohexane; 50 mg in 4 mL; read-out: Solubility at Room Temp (RT)
- Experimental: Bupropion hydrobromide (50 mg) was introduced in 4 mL of solvent under stirring for about 1 hour at room temperature. See Table 41 for the qualitative solubility data.

| COMPOUND | solubility |
| --- | --- |
| Br.CC(NC(C)(C)C)C(=O)c1cccc(Cl)c1 (stereo not shown) [Bupropion hydrobromide] | < 12.5 mg/mL |

----------
- PROTOCOL SUMMARY: Qualitative solubility screening
- Type: physicochemical
- CONDITION DETAILS: organic solvent or mixture, thermodynamic from solid, solvent 2-Propanol; 50 mg in 4 mL; read-out: Solubility at Room Temp (RT)
VALUE TYPE: solubility

| COMPOUND | RESULT |
| --- | --- |
| Br.CC(NC(C)(C)C)C(=O)c1cccc(Cl)c1 (stereo not shown) [Bupropion hydrobromide] | > 12.5 mg/mL |
